assay: Selectivity index, ratio of CC50 for cytotoxicity against human MT4 cells assessed as reduction in cell viability to EC50 for antiviral activity against NNRTI-resistant HIV-1 harboring L100I mutant infected in human MT4 cells; type: toxicity, cell-based; details: read-out: Ratio CC50/EC50
Listing of entries alongside the reported selectivity ratio.

Some molecules with recorded selectivity ratio:
Cc1cc(C#N)cc(C)c1Oc1nc(NC2CCN(Cc3ccc(B(O)O)cc3)CC2)ncc1C(N)=O    > 187
Cc1cc(C#N)cc(C)c1Oc1nc(NC2CCN(Cc3ccc(C(N)=O)cc3)CC2)ncc1C(N)=O    > 344
Cc1cc(C#N)cc(C)c1Oc1nc(NC2CCN(Cc3ccc(S(C)(=O)=O)cc3)CC2)ncc1C(N)=O    > 221

Next molecule, selectivity ratio to be filled in.
Ask: For the molecule Cc1cc(C#N)cc(C)c1Oc1nc(Nc2ccc(C#N)c(F)c2)ncc1C(N)=O , what selectivity ratio is on record?
Reply: 698

====

experiment: Selectivity index, ratio of CC50 for cytotoxicity against human MT4 cells assessed as reduction in cell viability to EC50 for antiviral activity against HIV-1 RES056 infected in human MT4 cells assessed as reduction in virus induced cytopathic effect; assay type: toxicity, cell-based; conditions: read-out: Ratio CC50/EC50
Listing of entries alongside the reported selectivity ratio.

Some compounds with recorded selectivity ratio:
Cc1cc(C#N)cc(C)c1Oc1nc(NC2CCN(Cc3ccc(S(C)(=O)=O)cc3)CC2)ncc1C(N)=O    > 68
Cc1cc(C#N)cc(C)c1Oc1nc(NC2CCN(Cc3ccc(B(O)O)cc3)CC2)ncc1C(N)=O    > 38
Cc1cc(C#N)cc(C)c1Oc1nc(NC2CCN(c3ccc(NS(C)(=O)=O)cc3)CC2)ncc1C(N)=O    > 7

Ask: For the compound Cc1cc(C#N)cc(C)c1Oc1nc(NC2CCN(Cc3ccc(C(N)=O)cc3)CC2)ncc1C(N)=O , what selectivity ratio is on record?
Reply: > 14

====

Listing of entries alongside the reported selectivity ratio.
test: Selectivity index, ratio of CC50 for cytotoxicity against human MT4 cells assessed as reduction in cell viability to EC50 for antiviral activity against HIV-1 IIIB infected in human MT4 cells assessed as reduction in virus induced cytopathic effect; type: toxicity, cell-based; conditions: read-out: Ratio CC50/EC50

Some compounds with recorded selectivity ratio:
Cc1cc(C#N)cc(C)c1Oc1nc(NC2CCN(c3cccc(C(N)=O)c3)CC2)ncc1C(N)=O    > 6
Cc1cc(C#N)cc(C)c1Oc1nc(Nc2ccc(CN3CCNCC3)cc2)ncc1C(N)=O    > 20

Next compound, selectivity ratio to be filled in.
Ask: For the compound Cc1cc(C#N)cc(C)c1Oc1nc(Nc2ccc(CN3CCN(S(C)(=O)=O)CC3)cc2)ncc1C(N)=O , what selectivity ratio is on record?
Reply: > 132

====

test: Selectivity index, ratio of CC50 for cytotoxicity against human MT4 cells assessed as reduction in cell viability to EC50 for antiviral activity against NNRTI-resistant HIV-1 harboring Y181C mutant infected in human MT4 cells; assay type: toxicity, cell-based; settings: read-out: Ratio CC50/EC50
Listing of entries alongside the reported selectivity ratio.

Cc1cc(C#N)cc(C)c1Oc1nc(NC2CCN(Cc3ccc(C(N)=O)cc3)CC2)ncc1C(N)=O    > 876
Cc1cc(C#N)cc(C)c1Oc1nc(NC2CCN(c3ccc(NS(C)(=O)=O)cc3)CC2)ncc1C(N)=O    > 901

Ask: For the compound Cc1cc(C#N)cc(C)c1Oc1nc(NC2CCN(Cc3ccc(S(C)(=O)=O)cc3)CC2)ncc1C(N)=O , what selectivity ratio is on record?
Reply: > 6790

Ask: For the compound Cc1cc(C#N)cc(C)c1Oc1nc(NC2CCN(Cc3ccc(B(O)O)cc3)CC2)ncc1C(N)=O , what selectivity ratio is on record?
Reply: > 1570
